tested on: SK-MEL-28 melanoma; assay: NCI-60 one-dose screen, 48 h; details: 10 µM unless noted
The panel holds about 83,000 compounds, 20% with a hit somewhere; the sample as a whole holds those more often. The source made the active and inactive calls. How the source made its calls: active means growth percent below 10; inactive means the rest.
Outcome codes: t (active), f (inactive)

>  <compound>
COc1cc(Cn2cc(F)c(=O)[nH]c2=O)cc(OC)c1

>  <assigned.label>
f

$$$$
>  <compound>
COc1cccc(C2C3=C(COC3=O)N(CCO)c3cc4c(cc32)CCC4)c1 (stereo unspecified)

>  <assigned.label>
f

$$$$
>  <compound>
Cc1nc(-c2ccccc2)cc2c(O)c(C(=O)N/N=C/Cc3ccccc3)[nH]c(=O)c12

>  <assigned.label>
f

$$$$
>  <compound>
CN1CCc2cccc3c2C1Cc1ccc(O)c(O)c1-3 (stereo unspecified)

>  <assigned.label>
f

$$$$
>  <compound>
CCOC(=O)c1c(Cl)c2c(n1Cc1ccc(OC)cc1)-c1oncc1CCC2

>  <assigned.label>
f

$$$$
>  <compound>
COC(=O)c1ccc(C(=O)Nc2ccccc2N)cc1

>  <assigned.label>
f

$$$$
>  <compound>
Cc1cc(=O)oc2c1ccc1oc(C(=O)c3ccccc3)c(C)c12

>  <assigned.label>
f

$$$$
>  <compound>
O=C1C(Br)=C(c2ccccc2)C(=O)C(Br)=C1c1ccccc1

>  <assigned.label>
f

$$$$
>  <compound>
Cc1c(NCC(=O)Nc2nc3ccccc3[nH]2)c(=O)n(-c2ccccc2)n1C

>  <assigned.label>
f

$$$$
>  <compound>
O=C1/C(=C/c2ccc(Oc3ccccc3)cc2)N=C(c2ccccc2)N1CCc1cccs1

>  <assigned.label>
f

$$$$
>  <compound>
C=C[C@H]1C[C@@H]2C[C@@H]3[C@H]4C/C=C\C(=O)NCCCC5NC(=O)C(=C(O)/C=C/[C@@H]4CC(=O)[C@H]3[C@@H]2[C@H]1C)C5=O (stereo partly specified)

>  <assigned.label>
t

$$$$

* * *

Quick reference for growth among some compounds
tested on: SK-MEL-5 melanoma; assay: NCI-60 one-dose screen, 48 h (100 = growth as untreated, 0 = no growth, -100 = all killed); conditions: 10 µM unless noted
This is part of a sample that, as a whole, favours compounds with a hit. Of some 83,000 tested, about 20% had one in any assay.

>  <compound>
O=C(Nc1ccc(Cl)c(Cl)c1)NC(CO)(CO)CO

>  <experimental.target>
SK-MEL-5 melanoma

>  <growth / %>
99.3

$$$$
>  <compound>
Nc1nc(N)c(C=Nc2ccc(Br)cc2)c(Nc2ccc(Br)cc2)n1

>  <experimental.target>
SK-MEL-5 melanoma

>  <growth / %>
108

$$$$
>  <compound>
CC(=O)N(CC(O)CO)c1c(I)c(C(=O)NCCO)c(I)c(C(=O)NCC(O)CO)c1I (stereo not given)

>  <experimental.target>
SK-MEL-5 melanoma

>  <growth / %>
91.7

$$$$
>  <compound>
O=[N+]([O-])c1ccc(C=C2C(Cl)=C(Cl)C(Cl)=C2Cl)cc1

>  <experimental.target>
SK-MEL-5 melanoma

>  <growth / %>
121

$$$$
>  <compound>
CC(C)(C)[Si](C)(C)OC1[C@@H](COC(N)=O)O[C@@H](n2cnc3c(N)ncnc32)[C@H]1O[Si](C)(C)C(C)(C)C (stereo not given in full)

>  <experimental.target>
SK-MEL-5 melanoma

>  <growth / %>
96.9

$$$$
>  <compound>
Cc1nc2cc(Nc3nc(NCCO)nc(Nc4ccc(F)cc4)n3)ccc2n1Cc1ccccc1

>  <experimental.target>
SK-MEL-5 melanoma

>  <growth / %>
80.3

$$$$
>  <compound>
O=C(CCc1nnc2sc(-c3ccccc3)nn12)c1nc2ccccc2[nH]1

>  <experimental.target>
SK-MEL-5 melanoma

>  <growth / %>
92.4

$$$$
>  <compound>
O=C(N/N=C/c1ccc2c(c1)OCO2)c1cnn2c1NC(c1ccccc1)C2 (stereo not given)

>  <experimental.target>
SK-MEL-5 melanoma

>  <growth / %>
37.3

$$$$
>  <compound>
COc1ccc(OC)c2ncccc12

>  <experimental.target>
SK-MEL-5 melanoma

>  <growth / %>
102

$$$$
>  <compound>
O=C1N/C(=C\c2ccccc2)c2ncccc21

>  <experimental.target>
SK-MEL-5 melanoma

>  <growth / %>
105

$$$$

* * *

tested on: HT29 colon; assay: NCI-60 one-dose screen, 48 h (100 = growth as untreated, 0 = no growth, -100 = all killed); settings: 10 µM unless noted
The panel holds about 83,000 compounds, 20% with a hit somewhere; the sample as a whole holds those more often.

>  <molecule>
O=C(CCCCCCC(=O)Nc1ccc2c(c1)/C(=C/c1ccc[nH]1)C(=O)N2)NO

>  <units.symbol>
%

>  <growth>
8.62

$$$$
>  <molecule>
Clc1ccc(C2=NN(c3ccccc3)[C@H](c3cn(-c4ccccc4)nc3-c3ccccc3)C2)cc1

>  <units.symbol>
%

>  <growth>
94.6

$$$$
>  <molecule>
COc1ccc(C2OCC(C)(C)CO2)cc1OC

>  <units.symbol>
%

>  <growth>
109

$$$$
>  <molecule>
O=C(O)CCN1CCN(c2cccc(Cl)c2)CC1

>  <units.symbol>
%

>  <growth>
99.8

$$$$
>  <molecule>
COc1cc(OCc2cccc(-c3ccc(C(O)c4nccs4)cc3)c2C)cc(OC)c1C=O (stereo unspecified)

>  <units.symbol>
%

>  <growth>
48.7

$$$$
>  <molecule>
Clc1nc(-c2ccccn2)nc2sc3c(c12)CCCCCC3

>  <units.symbol>
%

>  <growth>
99.3

$$$$
>  <molecule>
Clc1ccc2c(c1)C[C@H]1C[C@@H](c3cccs3)N2O1

>  <units.symbol>
%

>  <growth>
111

$$$$
>  <molecule>
CCOC(=O)C(CC(c1ccccc1)N1CCCCC1)[N+](=O)[O-] (stereo unspecified)

>  <units.symbol>
%

>  <growth>
95.4

$$$$
>  <molecule>
Cn1c2ccccc2c2nn(Cc3ccccc3)c(=O)nc21

>  <units.symbol>
%

>  <growth>
112

$$$$
>  <molecule>
COc1ccc(OC)c(/C=C2\Oc3cc(O)ccc3C2=O)c1

>  <units.symbol>
%

>  <growth>
100

$$$$
>  <molecule>
Cc1nc2cc(Nc3nc(Cl)nc(Nc4ccc(F)cc4)n3)ccc2n1Cc1ccccc1

>  <units.symbol>
%

>  <growth>
94.5

$$$$

* * *

system: K-562 leukemia; assay: NCI-60 one-dose screen, 48 h; details: 10 µM unless noted
Compounds without any hit were thinned out: in the full panel of roughly 83,000, 20% have a hit. Active and inactive are the calls of the source. Rule for the calls: active = growth percent below 10; inactive = the rest.
Outcome codes: active, inactive

>  <compound>
Cc1nc2nc(C(F)(F)F)[nH]c2nc1C

>  <assigned.label>
inactive

$$$$
>  <compound>
COc1ccc(/C=C2\Oc3cc(C)c(Cl)cc3C2=O)cc1OC

>  <assigned.label>
inactive

$$$$
>  <compound>
CCOc1ccc(-c2cnnn2-c2nonc2-n2cccc2)cc1

>  <assigned.label>
active

$$$$
>  <compound>
COc1ccc(Nc2[nH]n(C3=Nc4ccccc4Sc4ccccc43)c(=O)c2C#N)cc1

>  <assigned.label>
inactive

$$$$
>  <compound>
O=C1OCC2=C1C(c1ccc3c(c1)OCO3)CC(=O)N2c1cccc(Cl)c1 (configuration not stated)

>  <assigned.label>
inactive

$$$$
>  <compound>
COc1cccc(C2C3=C(COC3=O)N(CCO)c3cc4c(cc32)CCC4)c1 (configuration not stated)

>  <assigned.label>
inactive

$$$$
>  <compound>
O=c1c2cc(F)ccc2oc2c(NCCNCCO)nc3ccccc3c12

>  <assigned.label>
active

$$$$
>  <compound>
CN1CCN(C(=O)OCCOCCOC(=O)N2CCN(C)CC2)CC1

>  <assigned.label>
inactive

$$$$
>  <compound>
CCOC(=O)c1cn2c3c(cc(F)cc3c1=O)C(CC)c1ccccc1C2 (configuration not stated)

>  <assigned.label>
inactive

$$$$
>  <compound>
Clc1ccccc1Nc1ccc2nnc(-c3ccncc3)n2n1

>  <assigned.label>
inactive

$$$$
>  <compound>
CC1=CN2C(=NC3=C(CCCC/C3=C\c3ccccc3)C2c2ccccc2)S1 (configuration not stated)

>  <assigned.label>
inactive

$$$$
>  <compound>
O=C(NCc1ccc(F)cc1)C1CN(c2ccc(Cl)cc2)N(c2ccc(Cl)cc2)C1=O (configuration not stated)

>  <assigned.label>
inactive

$$$$
>  <compound>
COC(=O)c1c2c(c(C)[n+]([O-])c1C)C(=O)C=C(NCc1ccc(F)c(Cl)c1)C2=O

>  <assigned.label>
active

$$$$
>  <compound>
Cn1c(=O)c(S(=O)(=O)c2ccccc2)cc2ccc3c(cnn3-c3ccc(Cl)cc3)c21

>  <assigned.label>
inactive

$$$$
>  <compound>
CCOC(=O)c1cc2c(n(C)c1=O)-c1cnn(-c3ccc(OC)cc3)c1CC2

>  <assigned.label>
inactive

$$$$
>  <compound>
COc1ccc(OC)c(/C=C2\Oc3cc(O)ccc3C2=O)c1

>  <assigned.label>
inactive

$$$$
>  <compound>
CS(=O)(=O)Nc1cccc(C(=O)NCc2ccc(N3CCOCC3)cc2)c1

>  <assigned.label>
inactive

$$$$
>  <compound>
O=C(CC(O)c1ccccc1)Nc1ccccn1 (configuration not stated)

>  <assigned.label>
inactive

$$$$
>  <compound>
CCCCC(O)Cn1ncc(C(=O)OCC)c1NC(=O)NCc1ccccc1C(F)(F)F (configuration not stated)

>  <assigned.label>
inactive

$$$$
>  <compound>
Cc1c(C(=O)Nc2nc(-c3ccccc3)cs2)nnn1-c1cccc2ccccc12

>  <assigned.label>
inactive

$$$$
>  <compound>
O=C1Nc2ccc(Cl)cc2/C1=N/N=C(c1ccccc1)c1ccccc1

>  <assigned.label>
inactive

$$$$
>  <compound>
O=[N+]([O-])c1ccc2nc(N/N=C/c3ccc(O)cc3)sc2c1

>  <assigned.label>
inactive

$$$$
